# Test system: OXA-15 (Pseudomonas aeruginosa)
# Sequence (Q51574 22-275): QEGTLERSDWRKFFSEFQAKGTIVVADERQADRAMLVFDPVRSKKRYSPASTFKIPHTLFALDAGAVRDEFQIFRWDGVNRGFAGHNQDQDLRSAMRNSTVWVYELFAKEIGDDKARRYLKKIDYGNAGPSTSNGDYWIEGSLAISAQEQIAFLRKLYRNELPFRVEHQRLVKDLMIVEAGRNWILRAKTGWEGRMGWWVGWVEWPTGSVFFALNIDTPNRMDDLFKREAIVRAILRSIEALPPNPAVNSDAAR
# Measurement description: β-lactamase inhibitory activity, IC50 (nitrocefin hydrolysis)
List of pIC50 values.
Worth noting: pIC50 values are minus log10 of concentrations stated in mol/L.

**Q:** What value of pIC50 has been reported for the following compound? O=C1N2CC=C(c3cnoc3)C(C2)N1OC(F)(F)C(=O)[O-].[Li+] (stereo not drawn) [AF1]
**A:** 7.62

**Q:** What value of pIC50 has been reported for the following compound? O=C1N2CC(c3ncco3)=CC(C2)N1OC(F)(F)C(=O)[O-].[Li+] (stereo not drawn) [AF2]
**A:** 6.85

We next turn to a different compound, shown below.
**Q:** What value of pIC50 has been reported for the following compound? O=C1N2CC(n3cccn3)=CC(C2)N1OC(F)(F)C(=O)[O-].[Li+] (stereo not drawn) [AF3]
**A:** 6.92

* * *

# Test system: OXA-11 (Pseudomonas aeruginosa, UniProt Q06778)
# Sequence (Q06778 21-266): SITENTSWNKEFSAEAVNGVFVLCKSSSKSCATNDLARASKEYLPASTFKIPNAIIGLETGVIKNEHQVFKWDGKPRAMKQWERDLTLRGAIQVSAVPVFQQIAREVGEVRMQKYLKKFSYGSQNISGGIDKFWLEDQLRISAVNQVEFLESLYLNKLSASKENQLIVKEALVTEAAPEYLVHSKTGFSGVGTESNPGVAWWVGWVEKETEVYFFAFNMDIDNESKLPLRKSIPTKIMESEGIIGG
# Measurement description: β-lactamase inhibitory activity, IC50 (nitrocefin hydrolysis)
Experimental endpoint: IC50 (nM)
Answer format: numeric, nM implied, no suffix.

Sample records with IC50:
**Q:** What value of IC50 has been reported for the following compound? O=C1N2CC=C(c3cnoc3)C(C2)N1OC(F)(F)C(=O)[O-].[Li+] (stereo not drawn)
**A:** 250

**Q:** What value of IC50 has been reported for the following compound? O=C1N2CC(n3cccn3)=CC(C2)N1OC(F)(F)C(=O)[O-].[Li+] (stereo not drawn)
**A:** 40

We next turn to a different compound, shown below.
**Q:** What value of IC50 has been reported for the following compound? O=C1N2CC(c3ncco3)=CC(C2)N1OC(F)(F)C(=O)[O-].[Li+] (stereo not drawn)
**A:** 84

* * *

# Tested on: Proteus mirabilis (PMI) isolates
# Measurement description: microbe, parasite or virus in culture
# Format: cell-based
# Condition details: strain PMI UFR126; genotype TEM-2, PER-1
Experimental endpoint: MIC

Sample records with MIC:
**Q:** What value of MIC has been reported for the following molecule? CC1(C)S[C@@H]2[C@H](NC(=O)[C@H](N)c3ccc(O)cc3)C(=O)N2[C@H]1C(=O)O
**A:** >128 µg/mL

**Q:** What value of MIC has been reported for the following molecule? CC(C)(O/N=C(\C(=O)N[C@@H]1C(=O)N2C(C(=O)[O-])=C(C[n+]3ccccc3)CS[C@H]12)c1csc(N)n1)C(=O)O
**A:** >128 µg/mL

**Q:** What value of MIC has been reported for the following molecule? C=CC1=C(C(=O)O)N2C(=O)[C@@H](NC(=O)/C(=N\OCC(=O)O)c3csc(N)n3)[C@H]2SC1
**A:** 1024 µg/mL

We next turn to a different molecule, shown below.
**Q:** What value of MIC has been reported for the following molecule? CO/N=C(\C(=O)N[C@@H]1C(=O)N2C(C(=O)O)=C(COC(N)=O)CS[C@H]12)c1ccco1
**A:** >256 µg/mL
